The reported measurements were obtained from patent US20230183169A1.

Test system: left sciatic nerve of rats
Test: Sciatic nerve blocking experiment in rats (Von Frey filaments 60 g)
Type: in vivo, rat
Conditions: 2.0%, 0.2 mL near left sciatic nerve
Method: The compounds of the examples were dissolved in water for injection to a concentration of 0.5-2.0 g/100 mL (0.5%-2%), or mixed with commercially-available clinically-common local anesthetic drugs to prepare a mixed solution with a specific proportion, and the 0.75% levobupivacaine was used as the positive control compound. […]
As shown below, each of these compounds has a reported Duration of local anesthesia value.

Solved entries:
INSERT INTO results (compound, system_under_test, obs_value) VALUES
  ('CCN(CCCCCOc1cc(C)c(NC(=O)C[N+](CC)(CC)CC)c(C)c1)CC(=O)Nc1c(C)cccc1C', 'left sciatic nerve of rats', '96 to 120 h'),
  ('CC[N+](CC)(CC)CC(=O)Nc1c(C)cc(OC(C)=O)cc1C', 'left sciatic nerve of rats', '54 to 96 h'),
  ('CCCCCN(C)CC(=O)Oc1cc(C)c(NC(=O)C[N+](CC)(CC)CC)c(C)c1', 'left sciatic nerve of rats', '120 to 144 h'),
  ('CCCCCCOc1cc(C)c(NC(=O)C[N+](CC)(CC)CC)c(C)c1', 'left sciatic nerve of rats', '96 to 144 h'),
  ('CC[N+](CC)(CC)CC(=O)Nc1c(C)cc(OC(=O)OCCCN2CCCCC2C(=O)Nc2c(C)cccc2C)cc1C (centres unmarked)', 'left sciatic nerve of rats', '120 to 160 h'),
  ('CC[N+](CC)(CCO)CC(=O)Nc1c(C)cc(OC(=O)CCCc2ccc(Cl)cc2)cc1C', 'left sciatic nerve of rats', '72 to 120 h'),
  ('CC[N+](CC)(CCO)CC(=O)Nc1c(C)cc(OCCCCN2CCCCC2C(=O)Nc2c(C)cccc2C)cc1C (centres unmarked)', 'left sciatic nerve of rats', '72 to 84 h'),
  ('CCCC(=O)Oc1cc(C)c(NC(=O)C2CCCC[N+]2(C)CCC)c(C)c1 (centres unmarked)', 'left sciatic nerve of rats', '120 to 144 h'),
  ('CC[N+](CC)(CC)CC(=O)Nc1c(C)cc(N)cc1C', 'left sciatic nerve of rats', '2 to 4 h'),
  ('CCCCCOC(=O)Oc1cc(C)c(NC(=O)C[N+](CC)(CC)CC)c(C)c1', 'left sciatic nerve of rats', '96 to 144 h');

[ask] Query (compound): `C=CC[N+]1(CC(=O)Nc2c(C)cc(OC(=O)CCC)cc2C)CCCCC1` ; field requested: Duration of local anesthesia
[reply] 96 to 160 h

[ask] Same read-out for `CC[N+](CC)(CC)CC(=O)Nc1c(C)cc(OC(C)C)cc1C` ?
[reply] 120 to 144 h

[ask] How about this compound: `CC[N+](CC)(CC)CC(=O)Nc1c(C)cc(O)cc1C`
[reply] 30 to 48 h

[ask] Ok, now CC[N+](CC)(CC)CC(=O)Nc1c(C)cc(OC(=O)CCCCCCCN2CCCCC2C(=O)Nc2c(C)cccc2C)cc1C (centres unmarked)
[reply] 96 to 120 h

* * *

System: left sciatic nerve of rats
Assay: Sciatic nerve blocking experiment in rats (Von Frey filaments 60 g)
Format: in vivo, rat
Conditions: 0.5%, 0.2 mL near left sciatic nerve
# Duration of local anesthesia listing for each entry below

Use the examples below as a reference point.
INSERT INTO measurements (compound, assay_metric, obs_value) VALUES
  ('CCN(CCCCCOc1cc(C)c(NC(=O)C[N+](CC)(CC)CC)c(C)c1)CC(=O)Nc1c(C)cccc1C', 'Duration of local anesthesia', '18 to 24 h'),
  ('CC[N+](CC)(CC)CC(=O)Nc1c(C)cc(N)cc1C', 'Duration of local anesthesia', '<2 h');

[ask] Can you look up the measured Duration of local anesthesia of CC[N+](CC)(CC)CC(=O)Nc1c(C)cc(OC(=O)OCCCN2CCCCC2C(=O)Nc2c(C)cccc2C)cc1C (centres unmarked) for me?
[reply] 24 to 36 h

[ask] Entry `CCCCCN(C)CC(=O)Oc1cc(C)c(NC(=O)C[N+](CC)(CC)CC)c(C)c1` please
[reply] 30 to 36 h

[ask] Try this compound next: CCCC(=O)Oc1cc(C)c(NC(=O)C2CCCC[N+]2(C)CCC)c(C)c1 (centres unmarked)
[reply] 24 to 30 h

[ask] Could you do the same for `CC[N+](CC)(CCO)CC(=O)Nc1c(C)cc(OC(=O)CCCc2ccc(Cl)cc2)cc1C` , please?
[reply] 12 to 18 h

[ask] Same question for CC[N+](CC)(CC)CC(=O)Nc1c(C)cc(OC(=O)CCCCCCCN2CCCCC2C(=O)Nc2c(C)cccc2C)cc1C (centres unmarked) please.
[reply] 24 to 30 h

[ask] Try the compound `CC[N+](CC)(CC)CC(=O)Nc1c(C)cc(O)cc1C`
[reply] 4 to 10 h

[ask] Query `CC[N+](CC)(CC)CC(=O)Nc1c(C)cc(OC(C)C)cc1C` next
[reply] 12 to 18 h
